- Tested on: 287954-098-R-J1 tumor spheroid viability
- protocolNotes: Anticancer human tumor 287954-098-R-J1 patient-derived Ewing sarcoma cell line growth inhibition
- assaySetup: second compound 10 µM; first compound 0.0316 µM; stronger effect = lower value; spheroids with HUVEC and MSC
measuredQuantity: viability, T/C (%)
Record the value in %, omitting the unit from your answer.

query: Requested field: viability, T/C. Item: Cc1cc(C)c(CNC(=O)c2cc(-c3ccc(CN4CCOCC4)cc3)cc3c2cnn3C2CCCC2)c(=O)[nH]1 + Cn1nnc2c(C(N)=O)ncn2c1=O
result: 110

query: Item COc1cc(C)[nH]c(=O)c1CN1CCc2c(Cl)cc(C(OC)C3COC3)c(Cl)c2C1=O (stereo unspecified) + Cn1nnc2c(C(N)=O)ncn2c1=O has what recorded viability, T/C?
result: 102

query: viability, T/C lookup needed for COc1ccc([C@@H](O)c2cc(-c3ncnc4cc(N5CCOCC5)ccc34)c(F)cc2Cl)nn1 + Cn1nnc2c(C(N)=O)ncn2c1=O , thanks.
result: 107

query: Recorded viability, T/C for CC(C)n1c(=O)n(C)c2cnc3cc(F)c(-c4ccc(OCCCN5CCCCC5)nc4)cc3c21 + Cn1nnc2c(C(N)=O)ncn2c1=O , please?
result: 109

query: // returns reported viability, T/C for input [2H]c1nc(C)nc([2H])c1-c1cc(NC[C@@H](C)c2cccc3c(C(=O)NC)ccnc23)ncn1 + Cn1nnc2c(C(N)=O)ncn2c1=O
result: 101

query: Entry under review: CC1COCCN1c1cc(-c2ccnn2C)c2ccnc(-c3ccn[nH]3)c2n1 (stereo unspecified) + Cn1nnc2c(C(N)=O)ncn2c1=O . Reported viability, T/C?
result: 114

* * *

- Tested on: 287954-098-R-J1 tumor spheroid viability
- protocolNotes: Anticancer human tumor 287954-098-R-J1 cell line growth inhibition; active = viability on the fitted dose curve at most 10% of control; inactive = the rest;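 note: luminescent signal taken as surrogate of viable cell content; spheroids exposed to compound for 7 days before viability readout; 100% = DMSO vehicle control viability and lower means growth inhibition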
- assaySetup: second compound 0.00949 µM; first compound 0.3 µM; spheroids with HUVEC and MSC
- Method: Multicellular complex tumor spheroid response to DNA repair inhibitors in combination with DNA-damaging drugs This study explores the anticancer activities of DNA-damaging drugs and inhibitors of DNA damage repair, both as single agents and in combinations. […] Twenty-six patient-derived or established malignant cell lines were evaluated representing sarcoma, melanoma, small cell lung cancer (SCLC), non-small cell lung cancer (NSCLC), as well as bladder, ovarian and pancreatic cancers. […]
Could you please pick one outcome from this set? active, inactive

query: Tell me the assay call for O=C(c1cc(Cc2n[nH]c(=O)c3ccccc23)ccc1F)N1CCN(C(=O)C2CC2)CC1 + CC[C@@]1(O)C(=O)OCc2c1cc1n(c2=O)Cc2cc3c(CN(C)C)c(O)ccc3nc2-1 please.
result: inactive

query: Hi team, can someone confirm the assay call for CNCc1ccc(-c2cc(-c3nc(-c4ccc(S(=O)(=O)C(C)C)cc4)cnc3N)on2)cc1 + CC[C@@]1(O)C(=O)OCc2c1cc1n(c2=O)Cc2cc3c(CN(C)C)c(O)ccc3nc2-1 ?
result: active

query: Outcome logged for Cc1sc2c(c1C)C(c1ccc(Cl)cc1)=NC(CC(=O)Nc1ccc(O)cc1)c1nnc(C)n1-2 (centres undefined) + CC[C@@]1(O)C(=O)OCc2c1cc1n(c2=O)Cc2cc3c(CN(C)C)c(O)ccc3nc2-1 in this assay:
result: active

query: Answer briefly: the call reported for Cn1ncnc1[C@H]1c2n[nH]c(=O)c3cc(F)cc(c23)N[C@@H]1c1ccc(F)cc1 + CC[C@@]1(O)C(=O)OCc2c1cc1n(c2=O)Cc2cc3c(CN(C)C)c(O)ccc3nc2-1 in this assay.
result: active
